- test-target: SARS-CoV-2 spike protein (SARS-CoV-2, UniProt P0DTC2 P0DTC2:14-1213)
- assay-explanation: cell-based or functional assay
reported-metric: activity (nM)

DNA aptamer 8 (ssDNA) DNA: ATCCAGAGTGACGCAGCATTTCATCGGGTCCAAAAGGGGCTGCTCGGGATTGCGGATATGGACACGT	8.9
DNA aptamer 4 (ssDNA) DNA: ATCCAGAGTGACGCAGCATTTCATCGGGTCCAAAAGGGGCTGCTCGGGATTGCGGATATGGACACGGTGGCTTAGT	9
DNA aptamer 5 (ssDNA) DNA: ATCCAGAGTGACGCAGCAGGACTGCTTAGGATTGCGAAGCTGAGGAGCTCCCCCGCCTTGGACACGGTGGCTTAGT	9.7
DNA aptamer 2 (ssDNA) DNA: ATCCAGAGTGACGCAGCATCGAGTGGTGGGCTGGTCGGGTTTGGATTCCCTTAGATGCTGGACACGGTGGCTTAGT	8
DNA aptamer 3 (ssDNA) DNA: ATCCAGAGTGACGCAGCACTGCGTAGGCGCGGCCAATGTGTAGGATTGCTCAGGTCTGCTGGACACGGTGGCTTAGT	10
DNA aptamer 6 (ssDNA) DNA: ATCCAGAGTGACGCAGCAGTAGGGGGATTGGCTCCAGGGCCTGGCTGACGGTTGCACGTGGACACGGTGGCTTAGT	7.8
